System: OVCAR-5
method-notes: NCI tumour cell line growth inhibition, 48 h
Activity calls are given as the source filed them. No stated cut-off is given here; in the data, active = GI50 up to about 1.1 µM and inactive = higher.
Please go through the items and note down their GI50.

Check out these entries, answers already filled in.
- CCOC(=O)c1c(N2CCOCC2)[nH]c(=O)c(C(c2c(Cl)cccc2Cl)c2c(O)c(C(=O)OCC)c(N3CCOCC3)[nH]c2=O)c1O: 14.4 µM (inactive)
- CC1SC(c2ccccc2)N(Nc2c3ccccc3nc3ccccc23)C1=O (stereo not given): 78.7 µM (inactive)

Please give GI50 for each item listed below.
1. CN(C)CCNC(=O)c1ccc(Cl)c2c(Nc3ccc(S(=O)(=O)N=C(N)N)cc3)c3ccccc3nc12
2. COC(=O)CCCC(=O)NC1=C(NCc2ccccc2)C(=O)c2ccccc2C1=O
3. Cc1ccc2c(c1)C(=O)/C(=C1/CCc3ccc(C)cc31)C2
4. Nn1c(=O)n(Cc2ccccc2)n(-c2ccccc2)c1=O
5. COC(=O)C(=O)C(CC(=O)Nc1cc(Cl)ccc1Cl)C(=O)OC (stereo not given)

1. > 10 µM (inactive)
2. > 100 µM (inactive)
3. > 100 µM (inactive)
4. > 100 µM (inactive)
5. > 100 µM (inactive)

---

System: SW-620
method-notes: NCI tumour cell line growth inhibition, 48 h
Active and inactive are the calls of the source. Rule as the data show it: active = GI50 up to about 1.1 µM and inactive = higher.
reported-property: GI50

Check out these entries, answers already filled in.
• COC1(OC)CCC2(C)OC(c3ccccc3)C1O2 (stereo unspecified) = > 100 µM (inactive)
• CCOC(=O)c1csc(-c2nc(CCNC(=O)c3ccccc3)sc2Cl)n1 = > 100 µM (inactive)
• Cc1ccc(/C=C/C(=O)c2ccc([N+](=O)[O-])cc2)cc1 = > 100 µM (inactive)
• O=C(Nn1c(-c2ccccc2)nc2ccccc2c1=O)c1ccc(O)cc1 = > 100 µM (inactive)
• COC(=O)C1(CCCCCBr)CCCCCCCCCCC1=O (stereo unspecified) = 72.4 µM (inactive)

State its GI50 for this molecule: COC1=CC(=O)c2c(c(-c3nc(C)cs3)cn2C)C1=O 3.24 µM (inactive)

---

Test system: UACC-257
method-notes: NCI tumour cell line growth inhibition, 48 h
Calls of active or inactive are those of the source. Rule as the data show it: active = GI50 up to about 1.1 µM and inactive = higher.
reported-property: GI50

* C=CCOc1ccc(C2c3c(n[nH]c3O)CC(O)(OCC)C2C(=O)OCC)cc1OC (stereo unspecified) | > 100 µM (inactive)
* O=[N+]([O-])/C=C1\COCc2cc3c(cc21)OCO3 | 19.7 µM (inactive)

Please give GI50 for each item listed below.
1. CCOC(=O)C(=O)Nc1ccccc1C(C)C
2. CC(C)(C)OC(=O)CCC1NC(=O)[C@@H]2Cc3c([nH]c4ccccc34)C(c3ccccc3)N2C1=O (stereo partly specified)
3. COc1nc(N)c(NC(C)=O)c(=O)n1C
4. Nn1c(=O)n(Cc2ccccc2)n(-c2ccccc2)c1=O

1: > 100 µM (inactive); 2: 21.7 µM (inactive); 3: > 100 µM (inactive); 4: > 100 µM (inactive)

---

System: LOX IMVI
method-notes: NCI tumour cell line growth inhibition, 48 h
Activity calls are given as the source filed them. Rule as the data show it: active = GI50 up to about 1.1 µM and inactive = higher.
Outcome (select one): active, inactive

• Nc1cc2c(c3ccccc13)C(CCl)CN2C(=O)c1cc2cc(NC(=O)c3cc4ccccc4o3)ccc2[nH]1 (stereo not given) = active

Write down the call the test reported for this compound. Item: CCOC(=O)CCC(=O)C1c2cccc(O)c2C(=O)c2c(O)cc(C)cc21 (stereo not given) active

Write down the call the test reported for this compound. Item: COc1ccccc1Cn1c2c(c3cc(O)ccc31)C(=O)c1ccccc1C2=O inactive

Write down the call the test reported for this compound. Item: CC(=O)c1ccc(NC(=O)/C(CC(=O)c2sc(-c3cccnc3)nc2C)=N/NC(N)=O)cc1 inactive

Write down the call the test reported for this compound. Item: [O-]c1c[n+](CC[n+]2cc([O-])on2)no1 inactive

Write down the call the test reported for this compound. Item: NC(Cc1ccc(B(O)O)cc1)C(=O)NC(CO)CO (stereo not given) inactive

Write down the call the test reported for this compound. Item: CN(C)CCNc1c([N+](=O)[O-])cc2c3c(cccc13)C(=O)N(CCN(C)C)C2=O active

Write down the call the test reported for this compound. Item: Br[Se]c1ccccn1 inactive

Write down the call the test reported for this compound. Item: CCOC(=O)Nc1ccc(S(=O)(=O)OC)cc1.CCOC(=O)Nc1ccc(S(=O)(=O)OC)cc1.NC(=O)NCCO inactive

Write down the call the test reported for this compound. Item: CCCCCCCCCCCCCCCCNc1ccc2c(c1)OCCOCCOCCOCCO2 inactive

---

Tested on: EKVX
method-notes: NCI tumour cell line growth inhibition, 48 h
Active and inactive are the calls of the source. Cut-off read from the data, not from the text of the source: active = GI50 up to about 1.1 µM and inactive = higher.
Outcome (select one): Yes (active), No (inactive)

Solved entries (count: 6):
- C=CCNC(=O)C(C)C1CCC2(C)C=CC(=O)C(C)=C2C1O (stereo unspecified): No
- O=S1(=O)N2CN3CN(C2)CN1C3: No
- Cc1cc(S(=O)(=O)N=C2N(Cc3ccccc3)CCN2Cc2ccccc2)c(S)cc1Cl: No
- CN1C(=N\S(=O)(=O)c2ccc(Cl)cc2)/C(=N/N=P(c2ccccc2)(c2ccccc2)c2ccccc2)c2ccccc21: No
- CC(CO)CCNc1ncnc2c1ncn2CCC(=O)O (stereo unspecified): No
- O=C1C(Cl)=C(OCCCl)C(=O)c2c(O)ccc(O)c21: No

Write down the call the test reported for this compound. Item: COC(=O)C1=C(OC(=O)/C(=C/c2ccc(Cl)cc2)c2ccc(Cl)cc2)C(C(=O)OC)[C@]2(O)[C@@H](C(=O)OC)[C@H]1C[C@@H](c1ccccc1)[C@@H]2C(=O)OC (stereo partly specified) No

Write down the call the test reported for this compound. Item: O=CC(=C(I)I)c1ccccc1 No

Write down the call the test reported for this compound. Item: CC(=O)CC(=O)Nc1ccc(OS(N)(=O)=O)cc1 No

Write down the call the test reported for this compound. Item: CC(=O)CCC1(C(=O)OCC(C)C)CCCC1=O (stereo unspecified) No

Write down the call the test reported for this compound. Item: CC(=O)N1CC(C)(C)c2c(C)c(O)c(C)c(C)c21 No

---

Test system: HL-60
method-notes: NCI tumour cell line growth inhibition, 48 h
The source made the active and inactive calls. Rule as the data show it: active = GI50 up to about 1.1 µM and inactive = higher.
Outcome (select one): 1 (active), -1 (inactive)

Solved entries (count: 5):
* Cc1cc(S(=O)(=O)N/C(=C(\C#N)C(=O)c2ccccc2)[n+]2ccc(N(C)C)cc2)c([S-])cc1Cl | -1
* CO[C@H]1O[C@@H]2CO[C@@H](c3ccccc3)O[C@H]2[C@@H]2C/C=C\CCC[C@@]12O | -1
* CSCCCCCCCCCCOc1ccc(C=C2C(=C(C#N)C#N)c3ccccc3C2=C(C#N)C#N)cc1 | 1
* COC(=O)c1ccccc1C1CN=NC12Cc1c(C)cc(C)cc1C2=O (stereo not given) | -1
* Cc1cccc2c1c1ccc3c(c1n2C)C(=O)C=CC3=O | 1

Write down the call the test reported for this compound. Item: O=c1c2c([nH]c3cc4c(cc13)OCO4)-c1ccccc1C2 -1

Write down the call the test reported for this compound. Item: COC(=O)C1(CCCCCBr)CCCCCCCCCCC1=O (stereo not given) -1

Write down the call the test reported for this compound. Item: Brc1cc2c(cc1C1SCCS1)OCO2 -1

Write down the call the test reported for this compound. Item: CC1=NN(C(=O)c2ccc(Cl)cc2)C(=O)/C1=C/c1cccc([N+](=O)[O-])c1 -1

Write down the call the test reported for this compound. Item: CCOC(=O)/C=C\C(C#N)(C#N)/N=C/c1ccsc1 -1

---

Test system: 786-0
method-notes: NCI tumour cell line growth inhibition, 48 h
The source made the active and inactive calls. Cut-off read from the data, not from the text of the source: active = GI50 up to about 1.1 µM and inactive = higher.
reported-property: GI50

- COC(=O)C1=CC2C=CC(C1C(=O)OC)C1C(C(=O)OC)=C(C(=O)OC)C(C(=O)OC)=C(C(=O)OC)C21OC (stereo not given): > 100 µM (inactive)
- O=CC(=C(I)I)c1ccccc1: 2.14 µM (inactive)
- COc1ccc(NC(=O)CSc2nnc(Cc3ccccc3)o2)cc1: > 100 µM (inactive)

Please give GI50 for each item listed below.
1. COc1cc(/C=C2\[C@@H]3NC(Cc4c(OC)c(C)c(OC)c(OC)c43)C(=O)N2Cc2ccccc2)c(OC)c(C)c1OC
2. O=C(Cn1cc(F)c(=O)[nH]c1=O)C12CC3CC(CC(C3)C1)C2
3. Cc1ccc2nc(N/N=C/c3ccc(C)s3)cc(C)c2c1
4. N#Cc1c2c(c(N)oc1=O)C(c1ccccc1)CC(=O)N2 (stereo not given)
5. Nc1ccc2nc3ccc(N)cc3[n+](-c3ccccc3)c2c1
6. CC(=O)Nc1ccc(-c2nnc(SCC(=O)Nc3ccccc3)o2)cc1

["48.6 µM (inactive)", "> 100 µM (inactive)", "3.37 µM (inactive)", "> 100 µM (inactive)", "95.7 µM (inactive)", "> 100 µM (inactive)"]

State its GI50 for this compound: NC(=S)N/N=C1\NC(=O)/C(=C/c2ccc3c(c2)OCO3)S1 33.9 µM (inactive)
